// reported pEC50 for each item listed
- Tested target: GPR40 (Homo sapiens, UniProt O14842)
- Sequence (O14842 whole entry): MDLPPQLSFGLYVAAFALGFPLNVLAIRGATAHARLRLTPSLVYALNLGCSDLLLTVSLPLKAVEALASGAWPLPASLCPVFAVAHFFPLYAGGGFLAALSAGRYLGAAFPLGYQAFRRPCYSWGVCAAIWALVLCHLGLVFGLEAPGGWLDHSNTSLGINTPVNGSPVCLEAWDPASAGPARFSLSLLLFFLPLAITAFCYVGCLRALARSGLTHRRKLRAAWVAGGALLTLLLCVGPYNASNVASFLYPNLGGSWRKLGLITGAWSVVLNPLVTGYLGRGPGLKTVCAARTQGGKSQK
- Test description: Inositol phosphate accumulation assay (A9_GPR40 cells)
- Type: cell-based
- Parameters: expressed in transfected cells; host or cells: CHO cells stably transfected with GPR40 and aequorin
- Measurement parameters: inositol phosphate assay, A9_GPR40 cells, 1 hour; read-out: IP3 EC50
pEC50: −log10 of the molar value.
Observed property: pEC50

compound="COc1ccc(F)c(-c2ccc(COc3cccc([C@@H](CC(=O)O)CC4CC4)c3)cc2C(O)(C(C)C)C(C)C)c1 (single isomer, unassigned)" reported_measurement="6.00 to 7.00"
compound="COc1ccc(F)c(-c2ccc(COc3cccc(C(CC(=O)O)C4CCC4)c3)cc2C2CCCC2(C)C)c1 (single isomer, unassigned)" reported_measurement="7.00 to 8.00"
compound="COCCO[C@H](c1cc(COc2cccc([C@@H](CC(=O)O)CC3CC3)c2)ccc1-c1cc(OC)ccc1F)C(C)(C)C (single isomer, unassigned)" reported_measurement="> 8.00"
compound="COc1ccc(F)c(-c2ccc(COc3cccc([C@@H](CC(=O)O)CC4CC4)c3)cc2C2=CC(C)(C)CC(C)(C)C2)c1 (single isomer, unassigned)" reported_measurement="7.00 to 8.00"
compound="CCC(CC(=O)O)c1cccc(OCc2cc(C3CCCC3(C)C)c(-c3cc(OC)ccc3F)cc2F)c1 (single isomer, unassigned)" reported_measurement="> 8.00"
compound="CCC(CC(=O)O)c1cc(OCc2ccc(-c3cc(OC)ccc3F)c(C3CCCC3(C)C)c2)ccc1F (single isomer, unassigned)" reported_measurement="7.00 to 8.00"

====

pEC50 values by entry
- Tested target: GPR40 (Homo sapiens, UniProt O14842)
- Test description: Cell-based aequorin assay (CHO cells stably expressing GPR40 and aequorin)
- Set-up: expressed in transfected cells; host or cells: CHO cells stably transfected with GPR40 and aequorin
- Measurement parameters: activation of human GPR40, CHO cells, 0.01% HSA
pEC50: −log10 of the molar value.
Observed property: pEC50

molecule="COc1ccc(F)c(-c2ccc(COc3cccc([C@@H](CC(=O)O)C4CC4)c3)cc2[C@@H]2CCCCC2(C)C)c1 (single isomer, unassigned) [Example 66.21]" tested_target="GPR40 (Homo sapiens, UniProt O14842)" reported_measurement="6.00 to 7.00"
molecule="C=CC(CC(=O)O)c1cccc(OCc2ccc(-c3cc(OC)ccc3F)c(C(C)(C)C)c2)c1 (single isomer, unassigned)" tested_target="GPR40 (Homo sapiens, UniProt O14842)" reported_measurement="5.00 to 6.00"
molecule="CCC[C@H](CC(=O)O)c1cccc(OCc2ccc(-c3ccc(OC)nc3)c(C(C)(C)C)c2)c1 (single isomer, unassigned)" tested_target="GPR40 (Homo sapiens, UniProt O14842)" reported_measurement="5.00 to 6.00"
molecule="CC(C)(O)c1cccc(-c2ccc(COc3cccc([C@@H](CC(=O)O)C4CC4)c3)cc2[C@H]2CCCC2(C)C)c1 (single isomer, unassigned)" tested_target="GPR40 (Homo sapiens, UniProt O14842)" reported_measurement="5.00 to 6.00"
molecule="COCC(C)(C)C(OC)c1cc(COc2cccc(C(CC(=O)O)C3CC3)c2)ccc1-c1cc(OC)ccc1F (single isomer, unassigned)" tested_target="GPR40 (Homo sapiens, UniProt O14842)" reported_measurement="6.00 to 7.00"
molecule=COc1ccc(F)c(-c2ccc(COc3cc(CCC(=O)O)ccn3)cc2C2=CCCC2(C)C)c1 tested_target="GPR40 (Homo sapiens, UniProt O14842)" reported_measurement="6.00 to 7.00"
